test system: BV-2; experiment: Antiinflammatory activity in mouse BV2 cells assessed as inhibition of LPS-induced nitric oxide production pretreated for 1 hr followed by LPS addition and measured after 24 hrs by Griess assay; type: functional, cell-based
Overview of recorded IC50 for various compounds
valueType: IC50

* O=C(/C=C/c1ccc(O)c(O)c1)c1ccc(O)cc1O [BUTEIN] | 10.9 µM
* O=c1c(O)c(-c2ccc(O)c(O)c2)oc2cc(O)ccc12 [FISETIN] | 13.5 µM

# credit: ChEMBL document CHEMBL4152183
